Readings of EC50 for the listed compounds
Biological target: GCase (Homo sapiens, UniProt P04062)
Construct: endogenous in cells
Sequence (P04062 40-536): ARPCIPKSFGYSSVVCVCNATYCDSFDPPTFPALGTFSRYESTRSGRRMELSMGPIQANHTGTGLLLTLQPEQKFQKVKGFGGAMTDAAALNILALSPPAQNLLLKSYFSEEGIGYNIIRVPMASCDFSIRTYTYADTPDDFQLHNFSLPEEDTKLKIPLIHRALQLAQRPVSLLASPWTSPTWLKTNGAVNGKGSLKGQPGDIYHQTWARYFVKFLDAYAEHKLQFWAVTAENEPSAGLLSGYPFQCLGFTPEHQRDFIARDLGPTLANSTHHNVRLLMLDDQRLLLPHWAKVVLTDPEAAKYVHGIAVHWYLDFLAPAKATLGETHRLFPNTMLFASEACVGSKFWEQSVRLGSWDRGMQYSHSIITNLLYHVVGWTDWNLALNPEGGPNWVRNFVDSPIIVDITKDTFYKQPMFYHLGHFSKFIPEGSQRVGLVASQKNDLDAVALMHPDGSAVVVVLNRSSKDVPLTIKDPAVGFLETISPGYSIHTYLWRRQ
Assay: activation of GCase in a live cell PFB assay in HELA cells

{"columns": ["COMPOUND", "EC50"],
 "data": [
  ["CC(C)c1cc(C(=O)N2CC(COc3cccnc3C(F)(F)F)CCC2C)[nH]n1 (stereo not shown)", "< 10 µM"],
  ["O=C(c1cc(-c2cccc(F)c2)no1)N1CCCC(COc2ccccc2)C1 (stereo not shown)", "10 to 50 µM"],
  ["CCc1cnc(C)nc1N1CCC(COc2ccc(OC)cc2)CC1", "10 to 50 µM"],
  ["FC(F)(F)Cn1ncc2ncc(N3C[C@@H]4[C@@H](COc5cccnc5C(F)(F)F)[C@@H]4C3)nc21", "10 to 50 µM"]
]}
